# Test system: Abutilon theophrasti
# protocol.description: Post-emergence herbicidal activity against Abutilon theophrasti (velvetleaf)
# Type: functional, organism-based
The source made the active and inactive calls. The rule behind the calls is not given here.
experimental.readout: Activity

Nn1c(SCc2nc3ccccc3[nH]2)nnc1-c1ccccc1Cl :: inactive
Cc1ccc2[nH]c(CSc3nnc(-c4ccccc4)o3)nc2c1 :: inactive
Clc1ccccc1-c1nnc(SCc2nc3ccccc3[nH]2)s1 :: inactive
Cc1ccc2[nH]c(CSc3nnc(-c4ccccc4)s3)nc2c1 :: inactive

Dear colleague, I am looking for the recorded Activity of the following molecule: Clc1ccc(-c2nnc(SCc3nc4ccccc4[nH]3)s2)cc1
inactive

Which Activity value belongs to Cc1ccc2[nH]c(CSc3nnc(-c4cccc(Cl)c4)n3N)nc2c1 ?
inactive

# Activity lookup, item Cc1ccc2[nH]c(CSc3nnc(-c4ccccc4)n3N)nc2c1
inactive

Value lookup for Activity; key = Clc1cccc(-c2nnc(SCc3nc4ccccc4[nH]3)s2)c1
inactive

Which Activity value is on record for c1ccc2[nH]c(CSc3nnc(-c4ccncc4)s3)nc2c1 ?
inactive

Please look up its Activity: Nn1c(SCc2nc3ccccc3[nH]2)nnc1-c1ccccc1
inactive

Could you share which Activity value was measured for Nn1c(SCc2nc3ccccc3[nH]2)nnc1-c1ccc(Cl)cc1 ?
inactive

Fill blank: measured Activity of the molecule Clc1ccccc1-c1nnc(SCc2nc3ccccc3[nH]2)o1 is ____.
inactive

Tell me the measured Activity of Cc1ccc2[nH]c(CSc3nc4ccccc4[nH]3)nc2c1 , please.
inactive
